Tested on: PC-3 PIP/flu tumor-bearing mice
Assay: Biodistribution study in PC-3 PIP/flu tumor-bearing mice
Assay type: in vivo, athymic nude Balb/c mice
Conditions: 24 h p.i., PSMA-negative tumor xenograft, mice
Below is a list of entries, each paired with its recorded PC-3 flu Tumor value.
OUTCOME MEASURE: PC-3 flu Tumor (% IA/g)

compound="CC(C)Cc1ccc(C(C)C(=O)NCCCCC(NC(=O)CN2CCN(CC(=O)O)CCN(CC(=O)O)CCN(CC(=O)O)CC2)C(=O)NCC2CCC(C(=O)NC(Cc3ccc4ccccc4c3)C(=O)NCCCCC(NC(=O)NC(CCC(=O)O)C(=O)O)C(=O)O)CC2)cc1 (stereo not drawn) [^177Lu-Ibu-PSMA, metal not drawn]" subject_of_test="PC-3 PIP/flu tumor-bearing mice" outcome_measure="PC-3 flu Tumor" reported=0.58
compound="CC(C)Cc1ccc(C(C)C(=O)NCC[C@H](NC(=O)CN2CCN(CC(=O)O)CCN(CC(=O)O)CCN(CC(=O)O)CC2)C(=O)NCC2CCC(C(=O)N[C@@H](Cc3ccc4ccccc4c3)C(=O)NCCCC[C@H](NC(=O)N[C@@H](CCC(=O)O)C(=O)O)C(=O)O)CC2)cc1 (stereo partly drawn) [^177Lu-Ibu-sPSMA, metal not drawn]" subject_of_test="PC-3 PIP/flu tumor-bearing mice" outcome_measure="PC-3 flu Tumor" reported=0.66
compound="CC(C)Cc1ccc(C(C)C(=O)NC(CC(N)=O)C(=O)NCCCCC(NC(=O)CN2CCN(CC(=O)O)CCN(CC(=O)O)CCN(CC(=O)O)CC2)C(=O)NCC2CCC(C(=O)NC(Cc3ccc4ccccc4c3)C(=O)NCCCCC(NC(=O)NC(CCC(=O)O)C(=O)O)C(=O)O)CC2)cc1 (stereo not drawn) [^177Lu-Ibu-N-PSMA, metal not drawn]" subject_of_test="PC-3 PIP/flu tumor-bearing mice" outcome_measure="PC-3 flu Tumor" reported=0.23
